System: M-NFS-60 cells
protocol.text: cells
condition.parameters: 67 h, read-out: M-NFS-60 cell proliferation
reported.endpoint: IC50

Sample answers from the record:
[[record]]
compound = "Cn1cc(-c2cc(Oc3ccc(NC(=O)NC(=O)CCC4(C(F)(F)F)CC4)nc3)ccn2)cn1"
observed_result = "< 10 nM"

[[record]]
compound = "COC1(C(=O)NC(=O)Nc2cc(C)c(Oc3ccnc(-n4cnc(C)c4)c3)cn2)CCCC1"
observed_result = "< 10 nM"

[[record]]
compound = "CCC(C)(C)C(=O)NC(=O)Nc1ccc(Oc2ccnc(-c3cnn(C)c3)c2)cn1"
observed_result = "< 10 nM"


Could you now consider this next compound?
Q. Fill in the blank: the reported IC50 of Cc1ccc(-c2cc(Oc3ccc(NC(=O)NC(=O)C4CCOC4)nc3)ccn2)cn1 (stereo not shown) is ____.
A. 10 to 100 nM
